Test system: RXF 393 renal
Assay notes: NCI tumour cell line growth inhibition, 48 h
For each of the molecules below, state its TGI.

Molecule	System	TGI
CCOC(=O)Cc1nnc2n(-c3ccccc3)c(=O)c3ccccc3n12	RXF 393 renal	> 100 µM

List TGI for every entry below, keeping the order given.
1. CCOc1cn(C2OC(CO)C(O)C2O)c(=O)[nH]c1=O (stereo not given)
2. O=C(NNC1=NCCCN1)c1ccco1
3. C=C1[C@H](OCC(C)C)[C@@H](O)[C@@H](OC(=O)c2cccnc2)C(C)(C)/C=C/[C@H](C)[C@H](OC(C)=O)[C@@]2(O)C[C@@](C)(OC(C)=O)[C@H](OC(=O)c3ccccc3)[C@@H]2[C@H]1OC(C)=O
4. Cc1[nH]c2ccccc2c1CC/C(=N\Nc1ccccc1)c1ccccc1

*A*
> 100 µM
> 100 µM
> 5 µM
> 100 µM
